Target: GSK3a (GST-full length GSK3a) (Homo sapiens)
Construct: GST-full length GSK3a [SignalChem G08-10G]; purchased SignalChem G08-10G
Experiment: GSK3a TR-FRET kinase inhibition assay
Format: biochemical
Settings: 1 mM ATP; Table 4; read-out: GSK3α TR-FRET 1 mM ATP GMean IC50
pIC50: −log10 of the molar value.
So I've got a bunch of compounds here, and I need their pIC50 values.

Example cases with answers are listed next.
COMPOUND	ASSAY VALUE
CCC1(c2cccc(-c3ccnc4c3CCCC4)c2)C2=C(CC(C)(C)CC2=O)Nc2ncccc21 (single isomer, unassigned) [Compound 1039B]	6.00 to 7.00
CCC1(c2ccccc2)C2=C(CC(C)(C)NC2=O)Nc2ncc(F)cc21 (single isomer, unassigned) [Compound 1007B]	5.30 to 6.00
CCC1(c2cccc(-c3cncn3C(C)C)c2)C2=C(CC(C)(C)CC2=O)Nc2ncccc21 (single isomer, unassigned) [Compound 149A]	≥ 7.00
CCC1(c2cccc(-c3c(F)cncc3OC)c2)C2=C(CC(C)(C)CC2=O)Nc2ncc(F)cc21 (single isomer, unassigned) [Compound 161B]	≥ 7.00

Below are 4 compounds. Give each one its pIC50.
1. CCC1(c2ccccc2)C2=C(CC(C)(C)CC2=O)Nc2ncccc21 (single isomer, unassigned)
2. CCC1(c2cccc(-c3c(F)cncc3OC)c2)C2=C(CC(C)(C)CC2=O)Nc2ncccc21 (single isomer, unassigned) [Compound 154B]
3. CCC1(c2ccccc2)C2=C(CC3(CCC3)CC2=O)Nc2ncc(F)cc21 (single isomer, unassigned) [Compound 1008A]
4. CCC1(c2cccc(-c3ccnn3C)c2)C2=C(CC(C)(C)CC2=O)Nc2ncccc21 (single isomer, unassigned) [Compound 1019A]

Result:
5.30 to 6.00
≥ 7.00
6.00 to 7.00
6.00 to 7.00

---

I'd be grateful if you could share measured pIC50 for these entries.
Molecular target: GSK3a (GST-full length GSK3a) (Homo sapiens)
Construct: GST-full length GSK3a [SignalChem G08-10G]; purchased SignalChem G08-10G
Test: GSK3a TR-FRET kinase inhibition assay
Format: biochemical
Conditions: 1 mM ATP; Table 5; read-out: GSK3α TR-FRET 1 mM ATP Average IC50
pIC50: −log10 of the molar value.

COMPOUND	PROPERTY NAME	ASSAY VALUE
CC(C)Oc1cccc(C2(C)C3=C(CC(C)(C)CC3=O)Nc3ncc(C(F)F)c(C#N)c32)c1 (single isomer, unassigned) [650A]	pIC50	4.70 to 5.30

Please give pIC50, item by item, for the list that follows.
1. CC1(C)CC(=O)C2=C(C1)Nc1ncc(C#N)c(C#N)c1C2(C)c1ccccc1 (single isomer, unassigned) [605A]
2. CC1(C)CC(=O)C2=C(C1)Nc1ncc(F)c(C#N)c1C2(C)c1cccc(F)c1 (single isomer, unassigned) [618A]
3. CC1(C)CC2=C(C(=O)N1)C(C)(c1cccc(S(C)(=O)=O)c1)c1cc(F)cnc1N2 (single isomer, unassigned) [638A]
4. CC1(C)CC(=O)C2=C(C1)Nc1ncc(C(F)(F)F)c(C3CC3)c1C2(C)c1ccccc1 (single isomer, unassigned) [642B]
5. CC1(C)CC2=C(C(=O)N1)C(C)(c1cccc(S(C)(=O)=O)c1)c1cc(C3CC3)cnc1N2 (single isomer, unassigned) [647A]
6. C=Cc1cnc2c(c1C#N)C(C)(c1ccccc1)C1=C(CC(C)(C)CC1=O)N2 (single isomer, unassigned) [607A]

Result:
["6.00 to 7.00", "4.70 to 5.30", "≥ 7.00", "4.70 to 5.30", "6.00 to 7.00", "5.30 to 6.00"]

---

Target: GSK3a (GST-full length GSK3a) (Homo sapiens)
Construct: GST-full length GSK3a [SignalChem G08-10G]; purchased SignalChem G08-10G
Test: GSK3a TR-FRET kinase inhibition assay
Format: biochemical
Settings: 4 μM ATP; read-out: GSK3α TR-FRET 4 μM ATP GMean IC50
PROPERTY NAME: IC50

These solved cases illustrate the format of a correct answer.
MOLECULE	PROPERTY NAME	ASSAY VALUE
CCC1(c2ccccc2)C2=C(CC3(CCC3)CC2=O)Nc2ncc(F)cc21 (single isomer, unassigned) [Compound 1008A]	IC50	≤ 100 nM
CCC1(c2cccc(O)c2)C2=C(CC(C)(C)CC2=O)Nc2ncccc21 (single isomer, unassigned) [Compound 1004B]	IC50	1000 to 5000 nM
CCC1(c2cccc(-c3cc(C)nn3C)c2)C2=C(CC(C)(C)CC2=O)Nc2ncccc21 (single isomer, unassigned) [Compound 1024B]	IC50	≤ 100 nM
CCC1(c2cccc(-c3ccncc3OC)c2)C2=C(CC(C)(C)CC2=O)Nc2ncc(F)cc21 (single isomer, unassigned) [Compound 1037B]	IC50	≤ 100 nM
CCC1(c2cccc(-c3cn(C)nc3C)c2)C2=C(CC(C)(C)CC2=O)Nc2ncccc21 (single isomer, unassigned) [Compound 1023A]	IC50	≤ 100 nM

// CCC1(c2cccc(-c3ccncc3C)c2)C2=C(CC(C)(C)CC2=O)Nc2ncccc21 (single isomer, unassigned) [Compound 1020A] : IC50 value = 1000 to 5000 nM

---

Molecular target: GSK3a (GST-full length GSK3a) (Homo sapiens, UniProt P49840)
Construct: GST-full length GSK3a [SignalChem G08-10G]; purchased SignalChem G08-10G
Sequence (P49840 whole entry): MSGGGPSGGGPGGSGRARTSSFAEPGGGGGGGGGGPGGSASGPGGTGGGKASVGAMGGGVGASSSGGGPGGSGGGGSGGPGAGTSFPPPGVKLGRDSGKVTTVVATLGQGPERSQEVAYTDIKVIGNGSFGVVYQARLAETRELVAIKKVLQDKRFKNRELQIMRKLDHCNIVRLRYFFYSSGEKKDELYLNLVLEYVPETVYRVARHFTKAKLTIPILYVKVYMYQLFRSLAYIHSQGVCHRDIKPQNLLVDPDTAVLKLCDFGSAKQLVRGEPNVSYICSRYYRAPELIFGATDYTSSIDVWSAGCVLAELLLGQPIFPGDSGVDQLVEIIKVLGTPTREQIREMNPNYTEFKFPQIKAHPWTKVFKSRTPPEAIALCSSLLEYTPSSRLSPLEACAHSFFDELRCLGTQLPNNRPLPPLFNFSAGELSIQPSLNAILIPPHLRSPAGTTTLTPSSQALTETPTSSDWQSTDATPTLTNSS
Test: GSK3a TR-FRET kinase inhibition assay
Type: biochemical
Settings: 100 μM ATP; read-out: GSK3a 100 μM ATP Average IC50
pIC50: −log10 of the molar value.
PROPERTY NAME: pIC50

Example entries and their recorded answers appear below.
COMPOUND	pIC50
CC1(C)CC(=O)C2=C(C1)Nc1ncc(C(C)(C)C)cc1C2(C)c1ccccc1 (single isomer, unassigned) [Compound 124A]	4.70 to 5.30
CC1(C)CC(=O)C2=C(C1)Nc1ncc(C3CC3)cc1C2(C)c1ccccc1 (single isomer, unassigned) [Compound 117A]	6.00 to 7.00
CCC1(c2cccc(-c3c(C)nn(C)c3C)c2)C2=C(CC(C)(C)CC2=O)Nc2ncccc21 (single isomer, unassigned) [Compound 150A]	≥ 7.00
CCC1(c2cccc(-c3ccnc4c3CCCC4)c2)C2=C(CC(C)(C)CC2=O)Nc2ncc(F)cc21 (single isomer, unassigned) [Compound 165A]	≥ 7.00

Short answer for CCc1cnc2c(c1)C(C)(c1ccccc1)C1=C(CC(C)(C)CC1=O)N2 (single isomer, unassigned) [Compound 113A] : pIC50 was 5.30 to 6.00

---

For each record, write down the corresponding pIC50.
Molecular target: GSK3b (GST-full length GSK3b) (Homo sapiens, UniProt P49841)
Construct: GST-full length GSK3b: [SignalChem G08-9G]; purchased SignalChem G08-9G
Sequence (P49841 whole entry): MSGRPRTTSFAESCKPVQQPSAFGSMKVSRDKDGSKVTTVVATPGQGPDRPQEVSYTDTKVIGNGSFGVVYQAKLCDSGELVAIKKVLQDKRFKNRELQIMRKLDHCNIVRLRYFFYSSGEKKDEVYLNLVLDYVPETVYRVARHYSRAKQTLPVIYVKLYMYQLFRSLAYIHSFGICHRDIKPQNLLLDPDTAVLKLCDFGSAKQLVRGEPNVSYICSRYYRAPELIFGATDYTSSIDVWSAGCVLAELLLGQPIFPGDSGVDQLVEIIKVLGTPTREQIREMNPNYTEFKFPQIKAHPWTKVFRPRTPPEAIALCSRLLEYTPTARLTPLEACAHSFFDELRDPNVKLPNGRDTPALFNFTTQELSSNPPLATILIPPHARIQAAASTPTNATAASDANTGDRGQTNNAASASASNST
Assay: GSK3b TR-FRET kinase inhibition assay
Format: biochemical
Details: 1 mM ATP; Table 5; read-out: GSK3β TR-FRET 1 mM ATP Average IC50
pIC50: −log10 of the molar value.

MOLECULE	ASSAY VALUE
C=Cc1cnc2c(c1Br)C(C)(c1ccccc1)C1=C(CC(C)(C)CC1=O)N2 (single isomer, unassigned) [640B]	4.70 to 5.30
CC1(C)CC2=C(C(=O)N1)C(C)(c1cccc(S(C)(=O)=O)c1)c1cc(C(F)(F)F)cnc1N2 (single isomer, unassigned) [651B]	6.00 to 7.00
CCc1cnc2c(c1C#N)C(C)(c1ccccc1)C1=C(CC(C)(C)CC1=O)N2 (single isomer, unassigned) [608B]	4.70 to 5.30
CC1(C)CC2=C(C(=O)[C@H]1F)[C@](C)(c1ccccc1)c1c(ncc(F)c1C#N)N2 (single isomer, unassigned) [Compound 616D]	4.70 to 5.30
CC1(C)CC(=O)C2=C(C1)Nc1ncc(C3CC3)c(C#N)c1C2(C)c1ccccc1 (single isomer, unassigned) [619B]	4.70 to 5.30
CC1(C)CC(=O)C2=C(C1)Nc1ncc(F)c(C#N)c1C2(C)c1cccc(F)c1 (single isomer, unassigned) [618B]	6.00 to 7.00

I need pIC50 for every entry listed below, if you could help.
1. C=Cc1c(C(F)(F)F)cnc2c1C(C)(c1ccccc1)C1=C(CC(C)(C)CC1=O)N2 (single isomer, unassigned) [636A]
2. CC(C)Oc1cccc(C2(C)C3=C(CC(C)(C)CC3=O)Nc3ncc(F)c(C#N)c32)c1 (single isomer, unassigned) [639A]
3. CC(C)Oc1cccc(C2(C)C3=C(CC(C)(C)CC3=O)Nc3ncc4c(cnn4C)c32)c1 (single isomer, unassigned) [645B]

Result:
["6.00 to 7.00", "4.70 to 5.30", "5.30 to 6.00"]

Items follow; give pIC50 for each.
1. CN1C(=O)C2=C(CC1(C)C)Nc1ncc(C(F)F)c(C#N)c1C2(C)c1ccccc1 (single isomer, unassigned) [632A]
2. CC(C)Oc1cccc(C2(C)C3=C(CC(C)(C)CC3=O)Nc3ncc(F)cc32)c1 (single isomer, unassigned) [629A]

Result:
["6.00 to 7.00", "4.70 to 5.30"]
